tested on: SF-295 CNS; test: NCI-60 one-dose screen, 48 h (100 = growth as untreated, 0 = no growth, -100 = all killed); conditions: 10 µM unless noted
The panel holds about 83,000 compounds, 20% with a hit somewhere; the sample as a whole holds those more often.
Class 1 (yes): growth at least 30%. Class 0 (no): growth below 30%.

Before answering, review these 2 worked examples.
COc1ccccc1C(=O)NN1C(=O)/C(=C/C2=Cc3ccccc3OC2)SC1=S | 1 (yes)
Cn1cc(-c2cc(N)n3nc(-c4c[nH]c5ccccc45)cc3n2)c2cc(Br)cnc21 | 0 (no)

Now for a further molecule.
Exam item: decide whether the reported growth for CCCn1cc(-c2nc(Nc3ccc(C(=O)NCCCCNc4cccc5c4C(=O)N(C4CCC(=O)NC4=O)C5=O)cc3)nc3[nH]ccc23)cn1 (stereo not drawn) is at least 30%. 0 (no)

###

tested on: MDA-MB-435 melanoma; assay: NCI-60 one-dose screen, 48 h (100 = growth as untreated, 0 = no growth, -100 = all killed); conditions: 10 µM unless noted
This is part of a sample that, as a whole, favours compounds with a hit. Of some 83,000 tested, about 20% had one in any assay.
Class (by growth) -- range 1 (below 20%), range 2 (20% to below 70%), range 3 (70% or more)

Cc1ccc(S(=O)(=O)c2nc(S(=O)(=O)c3ccc(C)cc3)c(N3CCN(C)CC3)s2)cc1 | range 1
N#Cc1c(-c2cccc(Cl)c2Cl)cc(-c2ccc3ccccc3c2)[nH]c1=O | range 3
CC(C)Sc1nc(NCCc2c[nH]c3ccccc23)c(C#N)c(-c2ccccc2)n1 | range 2
O=C(c1ccccc1)C(c1c[nH]c2ccccc12)c1c[nH]c2ccccc12 | range 2
CC1=C(C(=O)c2ccccc2)C(c2ccc(-n3cncn3)cc2)n2c(nc3ccccc32)N1 (stereo not drawn) | range 3

Kindly state the category for this compound: CC(C)CSc1nc(NCCc2c[nH]c3ccccc23)c(C#N)c(-c2ccc(Cl)cc2)n1 range 3

Further, for Cn1cc(-c2nnc(N)nc2-c2c[nH]c3ccccc23)c2cccnc21 ? range 1

Further, for COc1ccc(-c2nc3cc(C)ccc3n2CC(=O)N=Nc2c(O)[nH]c3ccccc23)cc1 ? range 1

Further, for O=S(=O)(Nc1cccc(-n2cnc3cc(-c4ccc(O)cc4)ccc32)c1)C1CC1 ? range 1

Further, for CCOC(=O)C1=C(N)N(c2ccccc2)C2=C(C(=O)CC(C)(C)C2)C1c1ccccc1Cl (stereo not drawn) ? range 3

Further, for COc1ccc2c(c1)c(/C=N/Nc1ccc3ccccc3n1)cn2C ? range 1

Further, for O=C(COc1ccc(NC(=O)Nc2ccc(Cl)cc2)cc1)N/N=C/c1ccccc1 ? range 1

Further, for COc1ccc(/C=C/c2nc3ccccc3n3c(-c4ccc(Cl)cc4)nnc23)cc1 ? range 3

Further, for CCOP(=O)(OCCCl)c1nc(-c2ccc(C)cc2)oc1NCc1ccccc1 (stereo not drawn) ? range 3

Further, for COc1ccc(NC(=O)Nc2ccc(OCc3ccc(F)cc3)cc2)cc1 ? range 3

###

tested on: TK-10 renal; test: NCI-60 one-dose screen, 48 h; details: 10 µM unless noted
About 83,000 compounds went through this panel and 20% of them were active in at least one assay; those are over-represented in the sample as a whole. Calls of active or inactive are those of the source. The calls were made as follows: active = growth percent below 10; inactive = the rest.
Answer with one of the outcomes active, inactive

Before answering, review these 3 worked examples.
O=C(N/N=C/c1ccc(-c2ccc(O)cc2)s1)c1[nH]c2ccc(Br)cc2c1-c1ccccc1 | inactive
C=C1CCC2C3(C)COC(c4ccccc4)OC3CCC2(C)C1CC(NCc1ccccc1)C1=CCOC1=O (stereo unspecified) | inactive
Cn1cc(NC(=O)c2cc(NC(=O)c3ccc(C#Cc4ccccc4)cc3)cn2C)cc1C(=O)NCCCN1CCOCC1 | inactive

Outcome? Nc1cccc(SCc2cc3ccccc3[nH]c2=O)c1 inactive

Further, for COc1cc(C2CC(c3cc(OC)c(OC)c(OC)c3)=Nc3c(N)nc(N)nc3N2)ccc1Oc1nc(NCCO)nc(N2CCOCC2)n1 (stereo unspecified) ? inactive

Further, for COc1ccc([C@H](C)Nc2nc(Cl)nc3ccccc23)cc1 ? inactive

Further, for CNC(=O)c1cc(Oc2ccc3nc(NC(=O)Nc4cccc(OC(F)(F)F)c4)sc3c2)ccn1 ? active

Further, for Cc1ccc(-c2nc(C#N)c(S(=O)(=O)N3CCN(S(=O)(=O)c4ccc(Cl)cc4)CC3)o2)cc1 ? inactive

Further, for Cc1c(C(=O)NNC(=O)c2ccc(Cl)cc2)nnn1-c1ccc(Br)cc1 ? inactive

Further, for CC(=O)Nc1cccc(Nc2nc(NCc3ccccc3)c3ccccc3n2)c1 ? active

###

tested on: EKVX NSCLC; assay: NCI-60 one-dose screen, 48 h; settings: 10 µM unless noted
This is part of a sample that, as a whole, favours compounds with a hit. Of some 83,000 tested, about 20% had one in any assay. Calls of active or inactive are those of the source. Rule for the calls: active = growth percent below 10; inactive = the rest.
Answer with one of the outcomes Y (active), N (inactive)

C=C1CC[C@@H]2[C@]3(C)COC(c4cn[nH]c4-c4ccc(OC)cc4)O[C@@H]3CC[C@@]2(C)[C@@H]1C/C=C1/C(=O)OCC1O (stereo partly specified) | Y
N#Cc1cnn(C(=O)c2ccccc2Br)c1NC(=O)c1ccc(Br)cc1Cl | N
COc1cccc(/C=C/C(=O)c2ccc(OC)c(S(N)(=O)=O)c2)c1 | N
Cc1cc2nc3c([nH]c2cc1C)c1ccc(=O)cc1n3CCN(C)C | N
CCCCSc1nc(Nc2ccc(S(N)(=O)=O)cc2)c(C#N)c(-c2cc(OC)c(OC)c(OC)c2)n1 | N

Outcome? Cc1ccccc1[C@H]1C(C(=O)c2ccc(Cl)cc2)C2(N[C@@H]1c1ccccc1)C(=O)Nc1ccccc12 (stereo partly specified) Y

Further, for Nc1nc(-c2ccccc2)c(N=Nc2ccc([N+](=O)[O-])cc2Cl)s1 ? N

Further, for CC(C)c1sc(NC(=O)c2cc(NC(=O)c3cc(NC(=O)c4nccn4C)cn3C)cn2C)nc1C(=O)NCCCN(C)C ? N

Further, for COc1ccc2c(c1)C(=N/N=C(\C)c1ccc(OC)c(S(N)(=O)=O)c1)C(=O)N2 ? N

Further, for Cc1sc(C(NC(=O)OCCn2c([N+](=O)[O-])cnc2C)C(F)(F)Cl)nc1-c1ccc(OC(F)(F)F)cc1 (stereo unspecified) ? Y

Further, for COc1cccc(-c2c(C#N)c(-c3ccc(Cl)cc3)nc3n[nH]c(-c4ccc(Cl)cc4)c23)c1 ? N

Further, for O=C(NNc1nc2cc(F)ccc2n2c(CN3CC4CNCC4C3)ccc12)c1ccncn1 (stereo unspecified) ? N

Further, for CN1CCN(c2ccc(C(=O)/C=C/c3cc(C(F)(F)F)cc(C(F)(F)F)c3)cc2)CC1 ? Y

###

tested on: NCI-H23 lung; assay: NCI-60 one-dose screen, 48 h; details: 10 µM unless noted
This is part of a sample that, as a whole, favours compounds with a hit. Of some 83,000 tested, about 20% had one in any assay. Activity calls are given as the source filed them. How the source made its calls: active means growth percent below 10; inactive means the rest.
Answer with one of the outcomes active, inactive

Before answering, review these 6 worked examples.
COc1cc(OC)cc(C(=O)Nc2cccc(-c3cn(-c4ccc(S(N)(=O)=O)cc4)nn3)c2)c1 | inactive
O=C(NN1C(=O)/C(=C/C=C/c2ccc([N+](=O)[O-])o2)SC1=S)c1ccccc1O | active
Cc1ccccc1[C@H]1C(C(=O)c2ccc(Cl)cc2)C2(N[C@@H]1c1ccccc1)C(=O)Nc1ccccc12 (stereo partly drawn) | active
C(=C\c1cc(/C=C/c2ccccc2)c2ccccc2n1)/c1ccccc1 | inactive
COc1cc(-c2ccc(/C=N/NC(=O)c3[nH]c4ccc(Br)cc4c3-c3ccccc3)s2)cc(OC)c1OC | inactive
CC(=O)NNc1ccc2nnc(-c3ccccc3)n2n1 | inactive

Outcome? CC1(c2cc3cc(Br)ccc3oc2=O)NC(=O)c2c(/C=C/C(=O)OC3CC4CCC3(C)C4(C)C)cccc2N1 (stereo not drawn) inactive

Further, for CCN1C(=O)/C(=N\N=C(/C)c2ccc3c(c2)Nc2ccccc2S3)c2cc(Cl)ccc21 ? inactive

###

system: CAKI-1 renal; test: NCI-60 one-dose screen, 48 h (100 = growth as untreated, 0 = no growth, -100 = all killed); conditions: 10 µM unless noted
Compounds without any hit were thinned out: in the full panel of roughly 83,000, 20% have a hit.
Form field: growth (one value per entry).
Give just the numeric value; % need not be written.

COc1ccc(-c2nc(SC(C)C)nc(NCCc3c[nH]c4ccccc34)c2C#N)cc1 | 43
CC(=O)c1cccc(NC(=O)CCC(=O)NS(=O)(=O)c2ccc(C)cc2)c1 | 101

Notebook entry, CAKI-1 renal assay: growth of CN(C)c1nc(NCCNS(=O)(=O)c2ccc(C(=O)/C=C/c3ccc(F)cc3)cc2)nc(Nc2ccc(F)cc2)n1 = ? -51.9

Taken from PubChem BioAssay (NCI).
